The reported numbers originate from ChEMBL document CHEMBL1121361.

tested on: Mus musculus; test: Antitumor activity against P-388 Leukemia in female BDF1 mice expressed as percent T/C at dose 50 mg/kg; assay type: functional
Listed molecules paired with reported T/C
Express it in %; write the number only.

{"columns": ["Molecule", "T/C (%)"],
 "data": [
  ["O=C(Oc1ccccc1)n1c(=O)[nH]cc(F)c1=O", 101]
]}

Return reported T/C; argument: CCOC(=O)n1cc(F)c(=O)n(C(=O)c2ccccc2C)c1=O
125

Return reported T/C; argument: CC(=O)n1c(=O)c(F)cn(C(=O)c2ccccc2C)c1=O
114

Return reported T/C; argument: CC(=O)n1cc(F)c(=O)n(C(C)=O)c1=O
103

Return reported T/C; argument: CCC(=O)n1cc(F)c(=O)n(C(=O)c2ccccc2)c1=O
119

Return reported T/C; argument: O=c1[nH]cc(F)c(=O)[nH]1
76

###

tested on: Mus musculus; test: Antitumor activity against P-388 Leukemia in female BDF1 mice expressed as percent T/C at dose 50 mg/kg; format: functional
Parameter measured: T/C (%)
Express it in %; write the number only.

Take a look at these entries with their results.
{"columns": ["Compound", "T/C, %"],
 "data": [
  ["Cc1ccccc1C(=O)n1c(=O)c(F)cn(C(=O)OCc2ccccc2)c1=O", 108],
  ["CC(=O)n1cc(F)c(=O)n(C(=O)OCc2ccccc2)c1=O", 105],
  ["CC(=O)n1cc(F)c(=O)n(C(=O)c2ccccc2)c1=O", 116]
]}

Request - read-out T/C | tested on Mus musculus | compound Cc1ccccc1C(=O)n1c(=O)c(F)cn(C(=O)Oc2ccccc2)c1=O
106

Request - read-out T/C | tested on Mus musculus | compound Cc1ccccc1C(=O)n1c(=O)[nH]cc(F)c1=O
127

Request - read-out T/C | tested on Mus musculus | compound O=c1[nH]c(=O)n(C2CCCO2)cc1F (stereo not drawn)
104

Request - read-out T/C | tested on Mus musculus | compound CCOC(=O)n1cc(F)c(=O)n(C(=O)c2ccccc2)c1=O
116

Request - read-out T/C | tested on Mus musculus | compound CCOC(=O)n1cc(F)c(=O)n(C(=O)CC)c1=O
112

Request - read-out T/C | tested on Mus musculus | compound CCCCCCOC(=O)n1cc(F)c(=O)n(C(=O)c2ccccc2C)c1=O
106

Request - read-out T/C | tested on Mus musculus | compound CCCCCCC(=O)n1c(=O)c(F)cn(C(=O)OCC)c1=O
119

Request - read-out T/C | tested on Mus musculus | compound Cc1ccccc1C(=O)n1c(=O)c(F)cn(C(=O)C(C)C)c1=O
112

Request - read-out T/C | tested on Mus musculus | compound CC(=O)n1cc(F)c(=O)n(C(=O)c2ccccc2C)c1=O
111

Request - read-out T/C | tested on Mus musculus | compound CCC(=O)n1cc(F)c(=O)n(C(=O)c2ccccc2C)c1=O
112
